target-or-test-system: T1, human LAP-TGFβ1 (construct not stated) (human, UniProt P01137 30-390)
T1 construct: also called human LAP-TGFβ isoform 1; titrant
T1 sequence (P01137 30-390 limits assumed): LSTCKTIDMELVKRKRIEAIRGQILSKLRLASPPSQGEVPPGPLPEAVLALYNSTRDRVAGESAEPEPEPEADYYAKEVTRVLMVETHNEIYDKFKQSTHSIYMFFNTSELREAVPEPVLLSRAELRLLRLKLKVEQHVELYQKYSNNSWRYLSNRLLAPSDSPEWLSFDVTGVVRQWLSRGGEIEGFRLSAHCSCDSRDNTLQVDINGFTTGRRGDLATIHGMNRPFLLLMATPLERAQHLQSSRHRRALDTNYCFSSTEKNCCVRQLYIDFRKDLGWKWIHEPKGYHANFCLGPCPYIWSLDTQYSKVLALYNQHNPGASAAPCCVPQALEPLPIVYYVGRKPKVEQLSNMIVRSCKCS
method-description: KinExA, mAb as constant binding partner
pKd: −log10 of the molar value.
Parameter pKd: see the listing below.

binder	pKd
19BLM (antibody, human IgG1, kappa, L234A L235A, V domains shown, IgG1 L234A L235A D265S/kappa; also called 82BLH; 55BMD) VH: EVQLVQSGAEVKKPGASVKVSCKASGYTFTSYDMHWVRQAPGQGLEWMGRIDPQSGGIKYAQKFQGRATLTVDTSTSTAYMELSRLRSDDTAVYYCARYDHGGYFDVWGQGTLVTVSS VL: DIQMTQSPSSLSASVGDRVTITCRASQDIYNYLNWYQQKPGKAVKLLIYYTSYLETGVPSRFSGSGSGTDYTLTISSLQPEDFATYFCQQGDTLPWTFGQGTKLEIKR	10.17
12BLM (antibody, human IgG1, kappa, L234A L235A, V domains shown, IgG1 L234A L235A D265S/kappa; also called 75BLH; 48BMD) VH: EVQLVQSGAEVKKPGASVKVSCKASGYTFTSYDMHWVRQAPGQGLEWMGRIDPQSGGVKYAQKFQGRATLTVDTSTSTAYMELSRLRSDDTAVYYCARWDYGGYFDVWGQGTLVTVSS VL: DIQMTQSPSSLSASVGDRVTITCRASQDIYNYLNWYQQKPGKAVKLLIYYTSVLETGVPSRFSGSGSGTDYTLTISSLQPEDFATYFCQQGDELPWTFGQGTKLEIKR	12.44
